# Experimental system: UniProt Q8IIV2
# Experiment: IC50 for competition of protein binding to Kinobeads;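 note: native unpurified kinases from lysate captured on beads bearing immobilized kinase inhibitors, with bead-bound kinases quantified by mass spectrometry across compound doses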
# Condition notes: assay detail: Kinobeads competition in P. falciparum blood-stage lysate

- Molecule: "O=c1[nH]c2ccc(Cl)cc2c(NC2CN3CCC2CC3)c1-c1nc2ccccc2[nH]1 (stereo unspecified)"
  IC50: "> 20 µM"

----------
# Experimental system: UniProt Q8I3L4
# Experiment: IC50 for competition of protein binding to Kinobeads
# Condition notes: assay detail: Kinobeads competition in P. falciparum blood-stage lysate
Quantity: IC50

- Compound: "O=c1[nH]c2ccc(Cl)cc2c(NC2CN3CCC2CC3)c1-c1nc2ccccc2[nH]1 (stereo unspecified)"
  Observed value: "> 20 µM"

FYI, the data here is from the supplement of paper PMC13386468.
